Values compiled from patent CN116018351A.

Biological target: T1, CD123-Fc重组蛋白 (human, UniProt P26951 19-305)
T1 construct: also called CD123-Fc蛋白; 人CD123-Fc; not shown: Fc part
T1 sequence: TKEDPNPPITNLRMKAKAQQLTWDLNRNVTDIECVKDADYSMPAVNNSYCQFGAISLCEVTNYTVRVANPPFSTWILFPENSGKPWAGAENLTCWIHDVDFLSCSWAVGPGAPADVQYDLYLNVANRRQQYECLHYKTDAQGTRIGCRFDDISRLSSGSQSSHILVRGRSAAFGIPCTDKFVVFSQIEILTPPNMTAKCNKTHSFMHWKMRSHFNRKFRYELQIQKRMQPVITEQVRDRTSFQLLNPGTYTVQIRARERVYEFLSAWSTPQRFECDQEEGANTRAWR
Assay: FACS staining of CAR T cells with CD123-Fc recombinant protein
MEASURED QUANTITY: binding result

INSERT INTO measurements (binder, measured_quantity, assay_value) VALUES
  ('抗CD123 scFv-C11 (in a CAR on T cells) (scFv, Human scFv from phage display; also called 抗-CD123-C11; not shown: rest of the CAR, hinge domain to CD3-zeta domain) scFv: QSVVTQPPSASGTPGQRVTISCSGSSSNIGSNYVYWYQQLPGTAPKLLIYRNNQRPSGVPDRFSGSKSGTSASLAISGLRSEDEADYYCAAWDDSLSGYVFGTGTKLTVLGGGGSGGGGSGGGGSEVQLVESGGGLVQPGRSLRLSCTASGFTFGDYAMSWVRQAPGKGLEWVGFIRSKAYGGTTEYAASVKGRFTISRDDSKSIAYLQMNSLKTEDTAVYYCTRDIGYYGSGSYSPFDYWGQGTLVTVSS', 'binding result', 'binds'),
  ('抗CD123 scFv-C16 (in a CAR on T cells) (scFv, Human scFv from phage display; not shown: rest of the CAR, hinge domain to CD3-zeta domain) scFv: QSVVTQPPSASGTPGQRVTISCSGSSSNIEGNTVSWYQQFPGAAPKLLIYSNSYRASGVPDRFSGSKSGTSASLAISELQSEDEADYYCSAWDDSLNGPVFGGGTELTVLGGGGSGGGGSGGGGSQVQLQESGGGLVQPGGSLRLSCAASGFTFSSYSMNWVRQAPGKGLEWVSYISSSSSTIYYADSVKGRFTISRDNAKNSLYLQMNSLRAEDTAVYYCARDIYGDWDYYYYGMDVWGQGTTVTVSS', 'binding result', 'binds'),
  ('抗CD123 scFv-C9 (in a CAR on T cells) (scFv, Human scFv from phage display; not shown: rest of the CAR, hinge domain to CD3-zeta domain) scFv: QSVLTQPPSASGTPGQRVTISCSGSNSNIENNYVYWYQHLPGTAPKRLIYQNNQRPSGVPDRFSGSKSGTSASLAISGLRSEDEADYYCSAWDDSLSAWVFGGGTELTVLGGGGSGGGGSGGGGSEVHLVESGGGLVQPGRSLRLSCTASGFTFGDYAMNWVRQAPGKGLEWVGFIRSKASGGTTDYAASVKGRFTISRDDSKSIAYLQMNSLKTEDTAVYYCTRALRGYSYGLFDYWGQGTLVTVSS', 'binding result', 'binds');
